# maps each entry to its Löslichkeit (n-Heptan)
ASSAY SUMMARY: Solubility of the dyes in organic solvent, determined after one week of the solution in contact with the solid dye with occasional shaking
Format: physicochemical
STUDY CONDITIONS: n-Heptan, temperature not given; 10080 min
Give the value, in units of g/100 ml, as a plain number.

CCCCCCCCCCCCCCCCC(CCCCCCCCCCCCCCCC)N1C(=O)c2ccc3c4ccc5c6c(ccc(c7ccc(c2c37)C1=O)c64)C(=O)N(C(CCCCCCCCCCCCCCCC)CCCCCCCCCCCCCCCC)C5=O : 0.13
CCCCCCCCCC(CCCCCCCCC)N1C(=O)c2ccc3c4ccc5c6c(ccc(c7ccc(c2c37)C1=O)c64)C(=O)N(C(CCCCCCCCC)CCCCCCCCC)C5=O : 35

In the following, a different compound is considered.
Returns the measured Löslichkeit (n-Heptan) for the input compound. Input: CCCCCCCCCCC(CCCCCCCCCC)N1C(=O)c2ccc3c4ccc5c6c(ccc(c7ccc(c2c37)C1=O)c64)C(=O)N(C(CCCCCCCCCC)CCCCCCCCCC)C5=O
4.8

Numbers sourced from patent EP0446748A2.
